Measured Response to siRNA (% growth inhibition) accompanies every entry in the list below.
Tested on: UWB1.289 ovarian tumor cells
Test: Viability of ovarian tumor cells after siRNA transfection (trypan blue count)
Assay type: cell-based, human
Settings: 50 nM siRNA, DharmaFECT, 96 hours, vs control siRNA
OBSERVATION TYPE: Response to siRNA (% growth inhibition) (%)

INSERT INTO assay_data (substance, observation_type, quantitative_result) VALUES
  ('siEVI1-256: siRNA duplex; sense 5′-ccagauaaaugaucagauauu-3′ SEQ ID NO: 7, antisense SEQ ID NO: 8 (sense CCAGAUAAAUGAUCAGAUAUU; antisense UAUCUGAUCAUUUAUCUGGUU; listed as RNA, chemistry not given here)', 'Response to siRNA (% growth inhibition)', 43),
  ('siEVI1-992: siRNA duplex; sense 5′-ggacaaauguucagcacuauu-3′ SEQ ID NO: 11, antisense SEQ ID NO: 12 (sense GGACAAAUGUUCAGCACUAUU; antisense UAGUGCUGAACAUUUGUCCUU; listed as RNA, chemistry not given here)', 'Response to siRNA (% growth inhibition)', 73),
  ('siEVI1-2994: siRNA duplex; sense 5′-augaagaaguugaagaugauu-3′ SEQ ID NO: 15, antisense SEQ ID NO: 16 (sense AUGAAGAAGUUGAAGAUGAUU; antisense UCAUCUUCAACUUCUUCAUUU; listed as RNA, chemistry not given here)', 'Response to siRNA (% growth inhibition)', 0),
  ('siEVI1-2910: siRNA duplex; sense 5′-ggaauguggaggagagaauuu-3′ SEQ ID NO: 13, antisense SEQ ID NO: 14 (sense GGAAUGUGGAGGAGAGAAUUU; antisense AUUCUCUCCUCCACAUUCCUU; listed as RNA, chemistry not given here)', 'Response to siRNA (% growth inhibition)', 67),
  ('siEVI1-979: siRNA duplex; sense 5′-gugcaaagacuguggacaauu-3′ SEQ ID NO: 9, antisense SEQ ID NO: 10 (sense GUGCAAAGACUGUGGACAAUU; antisense UUGUCCACAGUCUUUGCACUU; listed as RNA, chemistry not given here)', 'Response to siRNA (% growth inhibition)', 14);

Source listed as patent US20160362693A1.
